This collection of values is drawn from ChEMBL document CHEMBL5120833.

Target: Cholinesterase (Homo sapiens)
Sequence (P06276 whole entry): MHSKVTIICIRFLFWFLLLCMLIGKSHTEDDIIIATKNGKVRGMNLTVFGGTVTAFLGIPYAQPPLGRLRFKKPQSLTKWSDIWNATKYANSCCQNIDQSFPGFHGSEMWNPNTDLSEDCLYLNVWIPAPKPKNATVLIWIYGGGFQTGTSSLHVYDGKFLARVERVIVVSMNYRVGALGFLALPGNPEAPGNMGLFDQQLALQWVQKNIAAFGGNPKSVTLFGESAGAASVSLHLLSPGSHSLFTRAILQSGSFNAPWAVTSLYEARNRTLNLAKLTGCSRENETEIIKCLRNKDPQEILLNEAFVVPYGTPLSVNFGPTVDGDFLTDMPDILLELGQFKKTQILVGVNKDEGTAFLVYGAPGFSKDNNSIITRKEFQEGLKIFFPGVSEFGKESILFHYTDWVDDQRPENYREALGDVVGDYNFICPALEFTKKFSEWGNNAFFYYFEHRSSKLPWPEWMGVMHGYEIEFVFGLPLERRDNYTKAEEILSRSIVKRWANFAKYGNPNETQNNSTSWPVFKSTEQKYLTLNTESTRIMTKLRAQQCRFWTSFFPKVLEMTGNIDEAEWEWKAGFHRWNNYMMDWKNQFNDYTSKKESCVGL
Experiment: Inhibition of human BuChE at 10 uM by Ellman's spectrophotometric method
Property: inhibition; scope: individual compounds
measured-endpoint: inhibition (%)

molecule_smiles=O=C(COc1ccc([N+](=O)[O-])cc1)NCC1CCN(Cc2ccccc2)CC1 measured_endpoint=inhibition observed_result=24
molecule_smiles=COc1ccc(OCC(=O)NCC2CCN(Cc3ccccc3)CC2)cc1 measured_endpoint=inhibition observed_result=55
molecule_smiles=O=C(COc1ccc(CCc2ccccc2)cc1)NCCN1CCN(Cc2ccccc2)CC1 measured_endpoint=inhibition observed_result=45
molecule_smiles=O=C(COc1cc(F)ccc1[N+](=O)[O-])NCC1CCN(Cc2ccccc2)CC1 measured_endpoint=inhibition observed_result=54
molecule_smiles=O=C(COc1ccc(Cc2ccccc2)cc1)NCCN1CCN(Cc2ccccc2)CC1 measured_endpoint=inhibition observed_result=29
molecule_smiles=COc1ccc(OCC(=O)NCCN2CCN(Cc3ccccc3)CC2)cc1 measured_endpoint=inhibition observed_result=25
molecule_smiles=O=C(COc1ccc(Cc2ccccc2)cc1)NCC1CCN(Cc2ccccc2)CC1 measured_endpoint=inhibition observed_result=37

* * *

Molecular target: Acetylcholinesterase (Homo sapiens, UniProt P22303)
Sequence (P22303 whole entry): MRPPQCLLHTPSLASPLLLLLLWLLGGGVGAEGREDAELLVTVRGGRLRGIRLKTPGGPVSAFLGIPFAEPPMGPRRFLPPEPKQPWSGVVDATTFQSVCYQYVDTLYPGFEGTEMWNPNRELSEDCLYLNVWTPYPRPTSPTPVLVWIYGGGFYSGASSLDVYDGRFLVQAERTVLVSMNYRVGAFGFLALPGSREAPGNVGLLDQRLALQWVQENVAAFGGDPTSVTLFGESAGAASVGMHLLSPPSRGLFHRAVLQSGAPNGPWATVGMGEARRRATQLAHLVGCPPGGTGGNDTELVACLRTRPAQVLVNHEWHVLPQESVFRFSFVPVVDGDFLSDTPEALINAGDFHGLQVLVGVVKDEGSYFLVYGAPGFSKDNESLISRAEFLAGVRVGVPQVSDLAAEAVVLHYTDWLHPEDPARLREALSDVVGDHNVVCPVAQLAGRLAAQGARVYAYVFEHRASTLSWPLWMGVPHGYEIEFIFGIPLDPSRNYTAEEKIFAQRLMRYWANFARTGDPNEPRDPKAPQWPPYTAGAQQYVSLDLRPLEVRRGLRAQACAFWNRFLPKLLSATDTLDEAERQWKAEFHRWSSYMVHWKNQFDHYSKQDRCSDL
pIC50: −log10 of the molar value.
measured-endpoint: pIC50

molecule_smiles=O=C(COc1ccc(Cc2ccccc2)cc1)NCC1CCN(Cc2ccccc2)CC1 target_under_test="Acetylcholinesterase (Homo sapiens, UniProt P22303)" measured_endpoint=pIC50 observed_result=5.90
molecule_smiles=O=C(COc1ccc(Cl)cc1[N+](=O)[O-])NCCN1CCN(Cc2ccccc2)CC1 target_under_test="Acetylcholinesterase (Homo sapiens, UniProt P22303)" measured_endpoint=pIC50 observed_result=9.10
molecule_smiles=O=C(COc1ccc(CCc2ccccc2)cc1)NCCN1CCN(Cc2ccccc2)CC1 target_under_test="Acetylcholinesterase (Homo sapiens, UniProt P22303)" measured_endpoint=pIC50 observed_result=6.05
molecule_smiles=O=C(COc1ccc(CCc2ccccc2)cc1)NCC1CCN(Cc2ccccc2)CC1 target_under_test="Acetylcholinesterase (Homo sapiens, UniProt P22303)" measured_endpoint=pIC50 observed_result=6.87
molecule_smiles=O=C(COc1ccc(Cl)cc1[N+](=O)[O-])NCC1CCN(Cc2ccccc2)CC1 target_under_test="Acetylcholinesterase (Homo sapiens, UniProt P22303)" measured_endpoint=pIC50 observed_result=6.91
molecule_smiles=O=C(COc1cc(F)ccc1[N+](=O)[O-])NCCN1CCN(Cc2ccccc2)CC1 target_under_test="Acetylcholinesterase (Homo sapiens, UniProt P22303)" measured_endpoint=pIC50 observed_result=8.55
molecule_smiles=COc1ccc(OCC(=O)NCC2CCN(Cc3ccccc3)CC2)cc1 target_under_test="Acetylcholinesterase (Homo sapiens, UniProt P22303)" measured_endpoint=pIC50 observed_result=6.06
molecule_smiles=COc1ccc(OCC(=O)NCCN2CCN(Cc3ccccc3)CC2)cc1 target_under_test="Acetylcholinesterase (Homo sapiens, UniProt P22303)" measured_endpoint=pIC50 observed_result=6.52
molecule_smiles=O=C(COc1ccc(-c2ccccc2)cc1)NCCN1CCN(Cc2ccccc2)CC1 target_under_test="Acetylcholinesterase (Homo sapiens, UniProt P22303)" measured_endpoint=pIC50 observed_result=6.13
molecule_smiles=O=C(COc1cc(F)ccc1[N+](=O)[O-])NCC1CCN(Cc2ccccc2)CC1 target_under_test="Acetylcholinesterase (Homo sapiens, UniProt P22303)" measured_endpoint=pIC50 observed_result=6.99
